Hey, just so you know, these numbers are from the supplement of paper PMC7877785.

experiment: self-splicing fitness, log relative to wild type (ln ratio); higher = more splicing; Tetrahymena group I intron in knt gene, E. coli kanamycin selection, DiMSum; sequences stand for … in CUCUCU…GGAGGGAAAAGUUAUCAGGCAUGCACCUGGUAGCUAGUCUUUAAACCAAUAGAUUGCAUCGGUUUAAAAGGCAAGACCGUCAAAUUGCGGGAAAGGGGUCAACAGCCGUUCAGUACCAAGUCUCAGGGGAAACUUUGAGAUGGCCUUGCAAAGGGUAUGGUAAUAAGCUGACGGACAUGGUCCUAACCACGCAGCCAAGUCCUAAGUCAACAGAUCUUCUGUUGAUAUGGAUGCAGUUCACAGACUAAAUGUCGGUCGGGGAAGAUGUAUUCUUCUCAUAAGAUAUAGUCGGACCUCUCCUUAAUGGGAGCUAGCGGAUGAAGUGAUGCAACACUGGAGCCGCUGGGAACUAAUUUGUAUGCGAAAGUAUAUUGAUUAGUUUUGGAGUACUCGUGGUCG; conditions: 30 °C;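 note: selection with 25 µg/mL kanamycin versus none on LB agar overnight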

sequence.record: AUCGAGCAAUAUUACGGUGU
self-splicing fitness (ln): -2.74

sequence.record: CCAUAGCAAUAUUACGAUGA
self-splicing fitness (ln): -0.628

sequence.record: CCUGAGCAAUAUUACGGGUG
self-splicing fitness (ln): -2.65

sequence.record: UACGAGCAAUAUUACGACCG
self-splicing fitness (ln): -1.8

sequence.record: GGAGAGCAAUAUUACGUGAU
self-splicing fitness (ln): -3.33

sequence.record: GUAUAGCAAUAUUACGUGAA
self-splicing fitness (ln): -3.69

sequence.record: CCGCAGCAAUAUUACGAUAC
self-splicing fitness (ln): -2.77

sequence.record: UCUUAGCAAUAUUACGGAUG
self-splicing fitness (ln): -3.74

sequence.record: AAACAGCAAUAUUACGCACA
self-splicing fitness (ln): -0.828

sequence.record: CCUCAGCAAUAUUACGCCGU
self-splicing fitness (ln): -3.05

sequence.record: CGCCAGCAAUAUUACGACAA
self-splicing fitness (ln): -2.46

sequence.record: GUAGAGCAAUAUUACGUAUG
self-splicing fitness (ln): -3.88

sequence.record: CCUAAGCAAUAUUACGCCGU
self-splicing fitness (ln): -2.92

sequence.record: UUCGAGCAAUAUUACGAGGC
self-splicing fitness (ln): -2.45

sequence.record: UGGAAGCAAUAUUACGUUCA
self-splicing fitness (ln): -0.654

sequence.record: UGAUAGCAAUAUUACGAGCA
self-splicing fitness (ln): -0.12

sequence.record: CGGGAGCAAUAUUACGGAAU
self-splicing fitness (ln): -4.07

sequence.record: AAGCAGCAAUAUUACGCCAU
self-splicing fitness (ln): -2.13

sequence.record: CGGCAGCAAUAUUACGGUAU
self-splicing fitness (ln): -3.82

sequence.record: GAAUAGCAAUAUUACGUCAG
self-splicing fitness (ln): -3.69

sequence.record: UGGAAGCAAUAUUACGUGUU
self-splicing fitness (ln): -3.39

sequence.record: UGAAAGCAAUAUUACGUAUG
self-splicing fitness (ln): -1.53

sequence.record: GCCGAGCAAUAUUACGCCCG
self-splicing fitness (ln): -2.68

sequence.record: UUUAAGCAAUAUUACGUGCU
self-splicing fitness (ln): -3.09

sequence.record: GACAAGCAAUAUUACGCAGG
self-splicing fitness (ln): -3

sequence.record: ACUCAGCAAUAUUACGGAUC
self-splicing fitness (ln): -1.46

sequence.record: GCUCAGCAAUAUUACGGGUC
self-splicing fitness (ln): -3.6

sequence.record: GUGUAGCAAUAUUACGUAUA
self-splicing fitness (ln): -2.85

sequence.record: GAGAAGCAAUAUUACGCAUA
self-splicing fitness (ln): -1.72

sequence.record: AAGGAGCAAUAUUACGGCUU
self-splicing fitness (ln): -2.58

sequence.record: CGUGAGCAAUAUUACGCCAC
self-splicing fitness (ln): -1.74

sequence.record: AUUUAGCAAUAUUACGUGGU
self-splicing fitness (ln): -2.91

sequence.record: UAGUAGCAAUAUUACGGUAA
self-splicing fitness (ln): -2.68

sequence.record: CUUGAGCAAUAUUACGAAAU
self-splicing fitness (ln): -2.7

sequence.record: UAACAGCAAUAUUACGGGUU
self-splicing fitness (ln): -3.91

sequence.record: AAUCAGCAAUAUUACGUUCC
self-splicing fitness (ln): -2.26

sequence.record: CAGGAGCAAUAUUACGGCUU
self-splicing fitness (ln): -3.93

sequence.record: AACGAGCAAUAUUACGUGAG
self-splicing fitness (ln): -3.58

sequence.record: UCCGAGCAAUAUUACGUGCC
self-splicing fitness (ln): -3.03

sequence.record: CGCCAGCAAUAUUACGUGAA
self-splicing fitness (ln): -1.76

sequence.record: ACGUAGCAAUAUUACGAUGA
self-splicing fitness (ln): -0.81

sequence.record: UAAUAGCAAUAUUACGCACA
self-splicing fitness (ln): -0.694

sequence.record: CAACAGCAAUAUUACGCGAA
self-splicing fitness (ln): -2.16

sequence.record: GGGCAGCAAUAUUACGCUGA
self-splicing fitness (ln): -1.25

sequence.record: GUGCAGCAAUAUUACGGCCG
self-splicing fitness (ln): -1.8

sequence.record: GCCUAGCAAUAUUACGCGAA
self-splicing fitness (ln): -2.72

sequence.record: CGUCAGCAAUAUUACGCCAG
self-splicing fitness (ln): -0.944

sequence.record: AAACAGCAAUAUUACGGUAA
self-splicing fitness (ln): -2.28

sequence.record: GUUCAGCAAUAUUACGUUGC
self-splicing fitness (ln): -3.13

sequence.record: UUAUAGCAAUAUUACGCACA
self-splicing fitness (ln): -0.698
